System: Setaria viridis
ASSAY NOTES: Herbicidal pre-emergence action
Format: in vivo
TEST CONDITIONS: pre-emergence method, 80 g/ha, greenhouse, visual assessment vs untreated controls
Source text: Seeds of monocotylidonous and dicotylidonous weed and crop plants are placed in sandy loam in wood fibre pots and covered with soil. The test compounds, formulated in the form of wettable powders (WP), are then, as an aqueous suspension with a water application rate of 600 l/ha (converted), with 0.2% of wetting agent added, applied to the surface of the covering soil in different amounts. […]
The compounds listed here are annotated with their herbicidal effect SETVI.
VALUE TYPE: herbicidal effect SETVI (%)

COMPOUND	VALUE TYPE	MEASUREMENT UNIT	MEASURED RESULT
CCOC(=O)OC1=C(c2c(CC)cc(C)cc2CC)C(=O)[C@@H]2CC3(C[C@H]12)OCCCO3 (relative stereo) [I-c-14]	herbicidal effect SETVI	%	70
CCc1cc(C)cc(CC)c1C1=C(OC(=O)OC)[C@H]2C[C@]3(COC(C)(C)O3)C[C@H]2C1=O (relative stereo) [I-c-4]	herbicidal effect SETVI	%	50
CCc1cc(C)cc(CC)c1C1=C(OC(C)=O)C2CC3(CC2C1=O)OCCCO3 (stereo not shown) [I-b-23]	herbicidal effect SETVI	%	50
CCc1cc(C)cc(CC)c1C1=C(O)C2CC3(COC(C)O3)CC2C1=O (mixture of isomers) [I-a-7]	herbicidal effect SETVI	%	70
Cc1cc(C)c(C2=C(OC(=O)C(C)(C)C)C3CC4(CC3C2=O)OCCCCO4)c(C)c1 (stereo not shown) [I-b-40]	herbicidal effect SETVI	%	30
CCc1cc(C)cc(C)c1C1=C(OC(=O)C(C)C)C2CC3(CC2C1=O)OCCO3 (stereo not shown) [I-b-79]	herbicidal effect SETVI	%	80
CCc1cc(C)cc(CC)c1C1=C(OC(=O)OC)C2CC3(CC2C1=O)OCC=CCO3 (stereo not shown) [I-c-21]	herbicidal effect SETVI	%	100
C=C1CC2C(=O)C(c3c(C)cc(C)cc3OC)=C(OC(=O)C(C)C)C2C1 (stereo not shown) [I-b-62]	herbicidal effect SETVI	%	80
CCC(=O)OC1=C(c2c(C)cc(C)cc2CC)C(=O)C2CC3(COC(C)(C)O3)CC12 (stereo not shown) [I-b-67]	herbicidal effect SETVI	%	90
CCc1cc(C)cc(CC)c1C1=C(OC(=O)C(C)(C)CC)C2CC3(CC2C1=O)OCCCO3 (stereo not shown) [I-b-30]	herbicidal effect SETVI	%	90
CCc1cc(C)cc(C)c1C1=C(OC(=O)OC)C2CC3(CC2C1=O)OCC=CCO3 (racemic) [I-c-73]	herbicidal effect SETVI	%	60
C#CC(C)ON=C1CC2C(=O)C(c3c(CC)cc(C)cc3CC)=C(OC(=O)OCC)C2C1 (stereo not shown) [I-c-43]	herbicidal effect SETVI	%	0
Cc1cc(C)c(C2=C(OC(=O)C(C)C)C3CC4(CC3C2=O)OCCO4)c(C)c1 (stereo not shown) [I-b-39]	herbicidal effect SETVI	%	0
CCOC(=O)OC1=C(c2c(CC)cc(C)cc2CC)C(=O)C2CC3(CC12)OC(C)CC(C)O3 (stereo not shown) [I-c-13]	herbicidal effect SETVI	%	60
CCOC(=O)OC1=C(c2c(CC)cc(C)cc2CC)C(=O)C2CC3(CC12)OC(C)(C)C(C)(C)O3 (stereo not shown) [I-c-18]	herbicidal effect SETVI	%	10
CCOC(=O)OC1=C(c2c(CC)cc(C)cc2CC)C(=O)C2CC3(CC12)OCC(C)O3 (mixture of isomers) [I-c-8]	herbicidal effect SETVI	%	50
